This collection of values is drawn from PubChem BioAssay.

ASSAYED_SYSTEM: Nuclear receptor subfamily 5 group A member 2 (Homo sapiens)
PROTOCOL_SUMMARY: LRH-1 (NR5A2) inverse agonists, retest, confirmation, cell-based, luminescence (AID 651613);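 also: HEK293T cells co-transfected with LRH-1 and StAR promoter luciferase reporter; 0% = vehicle wells and 100% = parental cells lacking receptor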
EXPERIMENTAL_CONDITIONS: cell-based LRH-1 luciferase reporter, inverse agonism; at 3.6 µM; stronger effect = higher value
READOUT_NAME: inhibition (%)
Just the number please, in %, no unit attached.

# count of solved cases: 2
CCCCNC(=O)CSc1nc2ccc(NC(=O)CSc3nnc(COc4ccccc4C)n3C)cc2s1: 61.2
COCC(=O)NC1CCN(CC(=O)Nc2ccc(OC)cc2[N+](=O)[O-])CC1: 60.2

Now for another entry.
INPUT: Requested read-out inhibition, target or system Nuclear receptor subfamily 5 group A member 2 (Homo sapiens), entry "Cc1ccccc1C(=O)NC1CCN(CC(=O)Nc2ccc(Br)cc2)CC1"
OUTPUT: 59.1

----------
System: transactivating tegument protein VP16 (Human herpesvirus 1)
PROTOCOL_SUMMARY: VP16 transactivation reporter inhibitors, counter-screen for SRC2 inhibitor project, cell-based, luminescence, single concentration (AID 652007)
EXPERIMENTAL_CONDITIONS: cell-based VP16 transactivation luciferase reporter, at 8.9 µM, stronger effect = higher value
Item-by-item account of inhibition
Answer format: numeric, % implied, no suffix.

// worked examples, inhibition included
COc1ccc(S(=O)(=O)N2c3ccc(F)cc3CCC2C)cc1 (stereo unspecified): -6.76
Cc1ccc(S(=O)(=O)N2CCN(C(=O)c3cc4c(C)nn(-c5ccccc5C)c4s3)CC2)cc1: 4.9
CCOc1ccc(Nc2ncnc3ccc([N+](=O)[O-])cc23)cc1: -19.7
O=C(O)CCCCCCCCCCC1CCC(O)C1O (stereo unspecified): 20.8
CCOc1ccc(-c2c(C(=O)N/N=C/c3cccc(Br)c3)nnn2-c2nonc2N)cc1: -5.94

INPUT: Request the reported inhibition associated with CCn1ccnc1CNC(=O)C1CCC(=O)N(Cc2ccccc2F)C1 (stereo unspecified)
OUTPUT: -4.87

INPUT: Given the compound "Nc1ccc(-c2cc3ccccc3c(=O)o2)cc1" , what is its reported inhibition?
OUTPUT: -7.3

INPUT: So what does the record say about inhibition for "COCc1cc(N2CCN(C(=O)OC(C)(C)C)C[C@H]2C)ccc1N1CCS(=O)(=O)CC1" ?
OUTPUT: 5.52

INPUT: Would you mind telling me what inhibition value was observed for "O=C(Nc1ccc2c(c1)OCCO2)C1CCCC1" ?
OUTPUT: -46

INPUT: May I ask what inhibition has been recorded for "Cc1ccc(S(=O)(=O)c2ccc([N+](=O)[O-])cn2)cc1" ?
OUTPUT: 13

INPUT: Return reported inhibition; argument: "C#CCN(C[C@@H]1[C@@H](OC(=O)Nc2cccs2)[C@@H](OC(=O)Nc2cccs2)Cn2c(=O)ccc(=O)n21)S(=O)(=O)c1ccc(C)cc1"
OUTPUT: 26.4

INPUT: Please look up its inhibition: "Cc1ccccc1C(=O)N1CCN(c2ccc(NC(=O)c3ccc4c(c3)OCO4)cc2)CC1"
OUTPUT: 10.2

INPUT: Entry "CCCCCCCCN1C(=O)[C@H](CC(=O)NCCCC)C[C@@]2(C(=O)OCC)CCCC=C12" : reported inhibition = ?
OUTPUT: -14

INPUT: Fill in the blank: the reported inhibition of "C=CCNc1ncnc2ccc(Br)cc12" is ____.
OUTPUT: 1.3

INPUT: # query: inhibition of entry "CN(Cc1ccccc1)S(=O)(=O)c1ccc(Cl)c(C(=O)NCCCN2CCOCC2)c1"
OUTPUT: -5.53

INPUT: inhibition lookup needed for "Clc1ccccc1C1=Nn2c(nnc2-c2ccncc2)SC1" , thanks.
OUTPUT: 7.16

INPUT: Which inhibition is reported for this compound? CCS(=O)(=O)Nc1ccc(C2=NN(C(=O)c3ccco3)C(c3cccs3)C2)cc1 (stereo unspecified)
OUTPUT: -5.61

INPUT: Give the measured inhibition of "Cc1ccc(NC(=O)CCN2CCCCC2)cc1" .
OUTPUT: -25

INPUT: I would be grateful if you could share the reported inhibition for CC1CN(C(=O)CCC(=O)N2CCN(c3cccc(C(F)(F)F)c3)CC2)c2ccccc2O1 (stereo unspecified) .
OUTPUT: 15.6
